Source: the supplement of paper PMC10065799

Target: EPHB2 (UniProt P29323)
Sequence (P29323 whole entry, looked up): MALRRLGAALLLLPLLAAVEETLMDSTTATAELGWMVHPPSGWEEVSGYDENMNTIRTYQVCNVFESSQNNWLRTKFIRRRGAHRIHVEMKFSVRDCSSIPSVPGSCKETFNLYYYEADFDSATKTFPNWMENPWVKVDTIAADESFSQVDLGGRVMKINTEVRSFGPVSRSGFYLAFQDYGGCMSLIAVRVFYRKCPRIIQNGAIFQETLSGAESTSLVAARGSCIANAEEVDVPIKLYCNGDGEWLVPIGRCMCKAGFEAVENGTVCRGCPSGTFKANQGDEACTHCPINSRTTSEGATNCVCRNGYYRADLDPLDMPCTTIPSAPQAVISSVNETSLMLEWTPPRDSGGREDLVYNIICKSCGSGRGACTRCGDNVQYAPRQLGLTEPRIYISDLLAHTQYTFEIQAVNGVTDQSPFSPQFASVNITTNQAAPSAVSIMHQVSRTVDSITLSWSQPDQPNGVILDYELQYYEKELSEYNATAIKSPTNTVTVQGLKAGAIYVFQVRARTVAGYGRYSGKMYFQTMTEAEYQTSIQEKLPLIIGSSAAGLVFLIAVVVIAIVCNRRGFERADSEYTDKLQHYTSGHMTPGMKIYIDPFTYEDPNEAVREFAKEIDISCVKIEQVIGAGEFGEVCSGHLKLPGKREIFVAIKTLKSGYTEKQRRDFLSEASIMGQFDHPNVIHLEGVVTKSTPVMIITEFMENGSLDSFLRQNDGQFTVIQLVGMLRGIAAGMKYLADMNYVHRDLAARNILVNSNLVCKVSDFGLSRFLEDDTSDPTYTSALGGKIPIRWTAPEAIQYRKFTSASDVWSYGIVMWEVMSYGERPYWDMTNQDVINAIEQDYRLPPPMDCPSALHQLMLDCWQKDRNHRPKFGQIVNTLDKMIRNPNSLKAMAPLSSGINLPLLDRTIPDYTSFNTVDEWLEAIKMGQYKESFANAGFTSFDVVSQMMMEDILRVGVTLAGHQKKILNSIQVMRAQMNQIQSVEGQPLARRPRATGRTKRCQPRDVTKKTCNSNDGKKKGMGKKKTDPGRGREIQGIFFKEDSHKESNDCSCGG
Experiment: phosphorylation enrichment, bacterial display (enrichment ratio); higher = better substrate or ligand; peptides without Tyr show the background
# label = bin(measured phosphorylation enrichment), where bins are Low = under 0.5, Mid = from 0.5 up to 0.6, High = 0.6 and over

Place this sequence in its band: DPTFGYEDFTR [SESN2_Y323]
Mid

Place this sequence in its band: HRDDGYMPMSP [IRS1_Y612_T608R]
Mid

---

Target: SHP2-C SH2;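 further: peptide library displayed on the E. coli surface as eCPX fusions, selected cells deep-sequenced, score is each peptide's frequency after selection divided by its frequency in the input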
Assay: SH2 binding enrichment of the phosphorylated peptide, bacterial display (enrichment ratio); higher = better substrate or ligand; peptides without Tyr show the background
Response key: Condition met means SH2 binding enrichment >= 0.6; Condition not met means SH2 binding enrichment < 0.6.

Please review the entries below; each comes with its answer.
>>> df
                        seq_string         class_name
0          LTERGYSFTTT [ACTB_Y198]      Condition met
1        GMEIVYVFVKK [DNAI2_Y5_YF]      Condition met
2  HRGCLYLAIEF [TEK_Y899_Y897C_YF]  Condition not met
3    QHVPDYRQNVF [PCDHGA1_Y890_YF]      Condition met

In plain terms: is recorded SH2 binding enrichment at least 0.6 for MNPPPYSQFLS [FGF23_Y154] ?
Condition not met

In plain terms: is recorded SH2 binding enrichment at least 0.6 for KLIETYFSKNF [PLP1_Y50_YF] ?
Condition met

In plain terms: is recorded SH2 binding enrichment at least 0.6 for IRKVLYANNVM [ACTA1_Y296_D294V] ?
Condition met

---

Biological target: Fes (UniProt P07332)
Sequence (P07332 whole entry, looked up): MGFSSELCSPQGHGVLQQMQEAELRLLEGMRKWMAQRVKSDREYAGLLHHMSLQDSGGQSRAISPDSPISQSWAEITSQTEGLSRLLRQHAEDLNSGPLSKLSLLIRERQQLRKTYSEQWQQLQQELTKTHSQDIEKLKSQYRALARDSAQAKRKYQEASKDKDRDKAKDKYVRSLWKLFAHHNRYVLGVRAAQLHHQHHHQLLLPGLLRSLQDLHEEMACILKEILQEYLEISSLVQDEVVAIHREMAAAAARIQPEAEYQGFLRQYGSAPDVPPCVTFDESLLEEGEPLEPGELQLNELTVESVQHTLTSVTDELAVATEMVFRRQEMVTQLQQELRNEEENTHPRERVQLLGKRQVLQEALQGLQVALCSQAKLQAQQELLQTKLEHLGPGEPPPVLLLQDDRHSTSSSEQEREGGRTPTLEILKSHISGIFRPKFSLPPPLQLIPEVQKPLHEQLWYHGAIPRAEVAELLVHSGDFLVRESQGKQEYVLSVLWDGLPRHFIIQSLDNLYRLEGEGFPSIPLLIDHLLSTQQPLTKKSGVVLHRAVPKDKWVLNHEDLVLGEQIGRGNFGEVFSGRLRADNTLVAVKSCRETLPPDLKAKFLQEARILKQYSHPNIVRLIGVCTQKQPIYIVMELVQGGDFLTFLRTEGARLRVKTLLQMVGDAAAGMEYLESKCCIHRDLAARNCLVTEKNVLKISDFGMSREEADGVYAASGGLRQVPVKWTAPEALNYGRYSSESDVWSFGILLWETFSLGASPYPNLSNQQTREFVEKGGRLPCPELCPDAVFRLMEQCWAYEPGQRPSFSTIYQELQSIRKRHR
Assay: phosphorylation enrichment, bacterial display (enrichment ratio); higher = better substrate or ligand; peptides without Tyr show the background
Response key: class 1 means phosphorylation enrichment >= 1; class 0 means phosphorylation enrichment < 1.

Please review the entries below; each comes with its answer.
>>> df
                           seq_string       measured_target  class_name
0             GEDLSYGDVPP [IRS1_Y151]  Fes (UniProt P07332)     class 1
1  TYEPNYGTVKR [RAPGEF6_Y1447_Q1452R]  Fes (UniProt P07332)     class 0
2             AKLDEYIAIAK [RCOR3_Y46]  Fes (UniProt P07332)     class 0
3  RFLERYIFNPE [HLA-DPB1_Y57_R61P_YF]  Fes (UniProt P07332)     class 1
4          SNFRAYATEPH [TNNI3_Y29_YF]  Fes (UniProt P07332)     class 0

In plain terms: is recorded phosphorylation enrichment at least 1 for SYDLDYDSVQP [MYC_Y16_N11S] ?
class 1

In plain terms: is recorded phosphorylation enrichment at least 1 for ESKKHYGYSLY [ANXA3_Y295_F291S] ?
class 0

In plain terms: is recorded phosphorylation enrichment at least 1 for SGSIHYSHVPR [GLB1_Y57_R59H] ?
class 0

In plain terms: is recorded phosphorylation enrichment at least 1 for SVVVPFEPPEV [TP53_Y220_Y220F] ?
class 1

In plain terms: is recorded phosphorylation enrichment at least 1 for HDHYGYRQSVT [CD55_Y245_R240H] ?
class 1

In plain terms: is recorded phosphorylation enrichment at least 1 for CGTPEYRAPEI [PRKACA_Y205_L206R] ?
class 1

In plain terms: is recorded phosphorylation enrichment at least 1 for EKEQNYDLTQV [ECD_Y448_E452Q] ?
class 1

In plain terms: is recorded phosphorylation enrichment at least 1 for AFGTVYKGLWI [EGFR_Y727] ?
class 1

In plain terms: is recorded phosphorylation enrichment at least 1 for ELRGTYTSLQQ [KIF3C_Y574] ?
class 0
